measured.on: T1, recombinant biotinylated CD71 extracellular domain (Sino Biologics) with an N-terminal 6His tag (human, UniProt P02786 89-760, biotinylated (sites not given))
T1 construct: extracellular domain; also called hCD71; huCD71
assay.summary: screening ELISA
observation.type: hCD71

SEQ ID NO 252 (designed binder, FN3 domain) MLPAPKNLVVSRVTEDSARLSWTAPDAAFDSFDIGYTEYGGYGEAIVLTVPGSERSYDLTGLKPGTEYWVLIQGVKGGGSSVPLSAIFTT | 2.98e+06
SEQ ID NO 227 (designed binder, FN3 domain) MLPAPKNLVVSRVTEDSARLSWTAPDAAFDSFRIRYLEWWNIGEAIVLTVPGSERSYDLTGLKPGTEYHVDIWGVKGGYSSYPLSAIFTT | 3.85e+06
SEQ ID NO 299 (designed binder, FN3 domain) MLPAPKNLVVSRVTEDSARLSWTAPDAAFDSFLIEYWESVGYGEAIVLTVPGSERSYDLTGLKPGTEYWVGIYGVKGGYYSRPLSAIFTT | 4.27e+06
SEQ ID NO 196 (designed binder, FN3 domain) MLPAPKNLVVSRVTEDSARLSWTAPDAAFDSFNIHYVEWWVLGEAIVLTVPGSERSYDLTGLKPGTEYPVYIYGVKGGPKSIPLSAIFTT | 1.72e+06
SEQ ID NO 105 (designed binder, FN3 domain) MLPAPKNLVVSRVTEDSARLSWTAPDAAFDSFGIAYYERSGAGEAIVLTVPGSERSYDLTGLKPGTEYMVYINGVKGGFVSSPLSAIFTT | 1.76e+06
SEQ ID NO 108 (designed binder, FN3 domain) MLPAPKNLVVSRVTEDSARLSWTAPDAAFDSFTIIYGEVNPYGEAIVLTVPGSERSYDLTGLKPGTEYDVFIEGVKGGHLSWPLSAIFTT | 3.19e+06
SEQ ID NO 293 (designed binder, FN3 domain) MLPAPKNLVVSRVTEDSARLSWTAPDAAFDSFTIEYWEFTGSGEAIVLTVPGSERSYDLTGLKPGTEYDVSIYGVKGGWLSYPLSAIFTT | 3.59e+06
SEQ ID NO 184 (designed binder, FN3 domain) MLPAPKNLVVSRITEDSARLSWTAPDAAFDSFGIGYYEHKRFGEAIQLSVPGSERSYDLTGLKPGTEYEVDIEGVKGGVLSWPLFAEFTT | 470000
SEQ ID NO 207 (designed binder, FN3 domain) MLPAPKNLVVSRVTEDSARLSWTAPDAAFDSFFIGYLEPQPPGEAIVLTVPGSERSYDLTGLKPGTEYNVTIQGVKGGTPSEPLSAISTT | 1.6e+06
SEQ ID NO 127 (designed binder, FN3 domain) MLPAPKNLVVSRVTEDSARLSWTAPDAAFDSFPIPYGESPPSGEAIVLTVPGSERSYDLTGLKPGTEYVVIIRGVKGGGRSGPLSAISTT | 3.56e+06
SEQ ID NO 195 (designed binder, FN3 domain) MLPAPKNLVVSRVTEDSARLSWTAPDAAFDSFPIEYDEIPFWGEAIVLTVPGSERSYDLTGLKPGTEYRVWIHGVKGGNSSWPLSAIFTT | 2.53e+06
SEQ ID NO 203 (designed binder, FN3 domain) MLPAPKNLVVSRVTEDSARLSWTAPDAALDSFRIEYYESYGHGEAIVLTVPGSERSYDLTGLKPGTEYDVGIYGVKGGYYSRPLSAIFTT | 3.38e+06

The values you see were collected from patent US20210145976A1.
